test system: BMPR1A; settings: Compound Concentration (nM):1000;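 note: KINOMEscan scanMAX binding as percent activity remaining versus control; lower means stronger binding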
Recorded measurements of Percent Control, one per entry
Respond with the bare value in %.

Study these solved cases before continuing.
>>> measurement("CCn1c(-c2nonc2N)nc2c(C#CC(C)(C)O)nc(OCCNC)cc21.Cl")
89
>>> measurement("COc1cc2ncnc(Nc3ccc4c(cnn4Cc4ccccc4)c3)c2cc1OC.Cl [GW282449A]")
92

Prompt line: GET /values?readout=Percent Control&system=BMPR1A&item= COc1ccc2c(-c3ccnc(Nc4cccc(OC(F)(F)F)c4)n3)cnn2n1 [GW810372X];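 note: KINOMEscan scanMAX binding as percent activity remaining versus control; lower means stronger binding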
Response line: 100

Prompt line: Also need `CCc1ccc(Oc2nccc(-c3c(-c4ccc(F)cc4)ncn3C3CCNCC3)n2)cc1` , thanks.
Response line: 87

Prompt line: What about this molecule? COC(=O)Nc1nc2ccc(Oc3ccc(NC(=O)Nc4cc(C(F)(F)F)ccc4F)cc3)cc2s1.Cl [GW693917A]
Response line: 89

Prompt line: Follow-up item: `NS(=O)(=O)c1ccc(N/N=C2\C(=O)Nc3ccc(-c4cnco4)cc32)cc1`
Response line: 100

Prompt line: Would you kindly repeat that for Cl.O=C(O[C@H]1CN[C@H](C#Cc2cc3ncnc(Nc4ccc5c(cnn5Cc5ccccc5)c4)c3s2)C1)N1CCOCC1 [GSK200398A] ?
Response line: 96

Prompt line: And what about the molecule C/C(Nc1ccc(S(N)(=O)=O)cc1)=C1/C(=O)Nc2ccccc21 [GW335962X] ?
Response line: 99

Prompt line: Can you check `COc1cc(C)c(N(C)C(=O)CN(C)C)cc1Nc1nc(Nc2cccc(F)c2C(N)=O)c2cc[nH]c2n1` next?
Response line: 93

Prompt line: Also COc1cc2ncn(-c3cc(O[C@H](C)c4ccccc4Cl)c(C(N)=O)s3)c2cc1OC [GSK237701A] ?
Response line: 100

Origin of values: paper PMC7826789
